Target: GluA1o-γ8 (GRIA1o-CACNG8 fusion construct) (Homo sapiens (Human), UniProt P42261+Q8WXS5)
Sequence (P42261 other isoform, or with tags, fused parts or gaps): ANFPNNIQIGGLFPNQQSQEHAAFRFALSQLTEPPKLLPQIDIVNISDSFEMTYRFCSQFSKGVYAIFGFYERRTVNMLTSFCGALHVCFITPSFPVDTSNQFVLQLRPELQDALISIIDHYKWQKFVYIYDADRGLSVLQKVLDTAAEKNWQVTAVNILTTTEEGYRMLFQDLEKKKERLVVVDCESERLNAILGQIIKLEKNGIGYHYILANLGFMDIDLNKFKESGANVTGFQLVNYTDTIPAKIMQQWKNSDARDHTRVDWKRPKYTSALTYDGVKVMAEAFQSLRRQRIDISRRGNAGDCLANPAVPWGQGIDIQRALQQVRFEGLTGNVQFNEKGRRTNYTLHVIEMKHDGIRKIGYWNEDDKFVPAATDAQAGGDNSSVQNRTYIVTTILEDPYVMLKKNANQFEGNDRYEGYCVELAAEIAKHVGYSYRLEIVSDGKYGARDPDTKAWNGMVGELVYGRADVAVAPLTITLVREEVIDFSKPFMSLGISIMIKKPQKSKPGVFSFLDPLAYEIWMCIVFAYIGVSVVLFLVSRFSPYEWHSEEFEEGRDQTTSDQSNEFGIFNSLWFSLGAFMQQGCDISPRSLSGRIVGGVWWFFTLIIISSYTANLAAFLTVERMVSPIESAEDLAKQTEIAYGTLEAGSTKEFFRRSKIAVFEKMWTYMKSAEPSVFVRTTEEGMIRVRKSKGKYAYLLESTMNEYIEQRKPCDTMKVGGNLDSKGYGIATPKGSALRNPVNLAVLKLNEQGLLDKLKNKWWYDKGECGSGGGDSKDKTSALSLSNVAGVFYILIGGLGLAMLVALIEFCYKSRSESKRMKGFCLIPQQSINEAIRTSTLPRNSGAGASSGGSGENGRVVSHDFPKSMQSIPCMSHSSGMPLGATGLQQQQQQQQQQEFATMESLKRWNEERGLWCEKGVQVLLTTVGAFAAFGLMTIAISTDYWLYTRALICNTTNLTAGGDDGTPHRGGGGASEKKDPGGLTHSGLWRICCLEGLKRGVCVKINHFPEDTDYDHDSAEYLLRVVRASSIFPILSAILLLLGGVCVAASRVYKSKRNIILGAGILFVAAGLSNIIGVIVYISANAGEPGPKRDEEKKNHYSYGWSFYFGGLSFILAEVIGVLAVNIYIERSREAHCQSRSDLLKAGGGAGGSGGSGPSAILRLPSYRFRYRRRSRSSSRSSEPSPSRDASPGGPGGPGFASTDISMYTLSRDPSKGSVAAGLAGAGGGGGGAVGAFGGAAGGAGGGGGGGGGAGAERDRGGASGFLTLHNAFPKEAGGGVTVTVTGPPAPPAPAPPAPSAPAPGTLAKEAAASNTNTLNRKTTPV
Test: Calcium flux assay (FLIPR), inhibition of TARP γ8 dependent AMPA receptor activity
Conditions: GluA1o-γ8 (GRIA1o-CACNG8 fusion) in HEK293 cells, calcium flux after 15 μM glutamate
Could you please mark true (1) for values of IC50 below 2 nM and false (0) for values at or above it?

**Query** Is 2 nM strictly greater than the compound's reported IC50? compound: `CC(C)(C)Oc1ccc2cc(-c3ccc(F)cc3)n(-c3ccc4[nH]ccc4c3)c2n1`
**Result** false (0)

---

Reported IC50 by item:
Biological target: GluA1o-γ8 (GRIA1o-CACNG8 fusion construct) (Homo sapiens (Human), UniProt P42261+Q8WXS5)
Assay: Calcium flux assay (FLIPR), inhibition of TARP γ8 dependent AMPA receptor activity
Conditions: GluA1o-γ8 (GRIA1o-CACNG8 fusion) in HEK293 cells, calcium flux after 15 μM glutamate
Description: This assay was used to test compounds for their ability to inhibit TARP γ8 dependent AMPA receptor activity. The AMPA receptor is a non-selective cation channel activated by glutamate. […] Cell expressing the GRIA1o-CACNG8 fusion construct were grown in a monolayer in 96- or 384-well microtiter plates. […] Calcium flux following the addition of 15 μM glutamate was monitored using a Molecular Devices FLIPR Tetra. […]
Write the number in nM without appending the unit.

Solved cases (5 shown):
N#Cc1n[nH]c2ccc(-n3c(C(F)(F)F)nc4ccc(C(F)(F)F)nc43)cc12 [Example 295]    39.8
CC(C)c1nc2ccc(C(F)(F)F)nc2n1-c1cc(Cl)c2c(c1)CC(=O)N2 [Example 299]    0.2
CC(C)c1nc2ccc(C(F)(F)F)nc2n1-c1cnc2c(c1)CC(=O)N2 [Example 301]    31.6
Cc1cc(-n2c(C3CC3)nc3ccc(C(F)(F)F)nc32)cc2cn[nH]c12 [Example 255]    0.0316
O=C1Cc2cc(-n3c(C(F)(F)F)nc4ccc(C(F)(F)F)nc43)cc(Cl)c2N1 [Example 271]    0.2

**Query** Recall the reported IC50 of Cc1cc2cccnc2n1-c1cc(Cl)c2c(c1)CC(=O)N2 [Example 338] when tested on GluA1o-γ8 (GRIA1o-CACNG8 fusion construct) (Homo sapiens (Human), UniProt P42261+Q8WXS5).
**Result** 7.94

**Query** Recall the reported IC50 of Cc1cc(-n2c(C(F)(F)F)nc3ccc(C(F)(F)F)nc32)cc2cn[nH]c12 [Example 294] when tested on GluA1o-γ8 (GRIA1o-CACNG8 fusion construct) (Homo sapiens (Human), UniProt P42261+Q8WXS5).
**Result** 0.02

**Query** Recall the reported IC50 of O=C1Cc2cc(-n3c(C4CC(F)C4)nc4ccc(C(F)(F)F)nc43)ccc2N1 (centres unmarked) [Example 166] when tested on GluA1o-γ8 (GRIA1o-CACNG8 fusion construct) (Homo sapiens (Human), UniProt P42261+Q8WXS5).
**Result** 10
